Measured TGI of individual entries
# System: SN12C renal
# assay info: NCI tumour cell line growth inhibition, 48 h

As a guide, the following entries are already answered.
entry_smiles=c1ccc(Oc2ccc(Nc3ncc(-c4ccccc4)o3)cc2)cc1 experimental_value="> 25 µM"
entry_smiles=Cn1c(=O)c(Oc2ccc(F)cc2F)cc2cnc(N[C@@H]3CCOC3)nc21 experimental_value="> 25 µM"

Q) Which measured TGI value corresponds to COS(C)(=O)=O ?
A) > 2 µM

====

# Test system: LOX IMVI melanoma
# assay info: NCI tumour cell line growth inhibition, 48 h
measurement type: TGI

entry_smiles=[N-]=[N+]=NCCCn1c2c(c3ccc([N+](=O)[O-])cc3c1=O)C(=O)c1cc(-c3ccccc3)ccc1-2 system_name="LOX IMVI melanoma" measurement_type=TGI experimental_value="> 100 µM"
entry_smiles=O=C(CCC(=O)Nc1cccc(C(F)(F)F)c1)CC(=O)c1ccc2ccccc2c1 system_name="LOX IMVI melanoma" measurement_type=TGI experimental_value="> 100 µM"
entry_smiles=CN(C)C(=S)C(Cl)(c1ccccc1)c1ccccc1 system_name="LOX IMVI melanoma" measurement_type=TGI experimental_value="> 100 µM"
entry_smiles=C/C(=N\Nc1nc2ccccc2[nH]1)c1cnccn1 system_name="LOX IMVI melanoma" measurement_type=TGI experimental_value="> 30.5 µM"

Now look at this entry.
Q) Which measured TGI value corresponds to COc1cc2c(c(OC)c1OC)-c1ccc(SC)c(=O)cc1[C@@H](NC(=O)C(F)(F)F)CC2 ?
A) > 87.3 µM
